- system_name: full length recombinant Pim-1 (Homo sapiens (Human), UniProt P11309)
- Sequence (P11309 whole entry): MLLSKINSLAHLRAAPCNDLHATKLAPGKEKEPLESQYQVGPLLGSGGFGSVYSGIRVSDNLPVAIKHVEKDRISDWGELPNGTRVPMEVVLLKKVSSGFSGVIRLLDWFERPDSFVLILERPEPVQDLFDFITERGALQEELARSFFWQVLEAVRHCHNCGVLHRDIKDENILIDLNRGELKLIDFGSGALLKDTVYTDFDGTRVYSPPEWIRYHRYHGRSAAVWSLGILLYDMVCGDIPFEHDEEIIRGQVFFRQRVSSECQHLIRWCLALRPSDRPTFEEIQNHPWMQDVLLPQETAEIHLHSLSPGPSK
- test_name: Pim enzyme assay (HTRF, phosphorylation of biotinylated-BAD (S112) peptide), Pim-1
- Assay type: biochemical
- test_conditions: Pim-1 enzyme assay; read-out: Pim_1_IC50

structure_smiles_string | display_unit | IC50
COCC(=O)Nc1cccc(CNc2nnc(-c3ccc4[nH]cc(-c5ccccc5F)c4c3)s2)c1 | nM | 365
COc1cncc(-c2c[nH]c3ccc(-c4nnc(N)o4)nc23)c1 | nM | 1130
C[C@H]1COCCN1c1ccnc(-c2c[nH]c3ccc(-c4nnc(N)o4)cc23)n1 | nM | 1.96
CC(C)Oc1cncc(-c2c[nH]c3ccc(-c4noc(N)n4)cc23)n1 | nM | 69.5

* * *

- system_name: full length recombinant Pim-3 (Homo sapiens (Human), UniProt Q86V86)
- test_name: Pim enzyme assay (HTRF, phosphorylation of biotinylated-BAD (S112) peptide), Pim-3
- Type: biochemical
- test_conditions: Pim-3 enzyme assay; read-out: Pim3 IC50
pIC50: −log10 of the molar value.

compound | pIC50
CNc1nnc(-c2ccc3[nH]cc(-c4cccc(F)n4)c3c2)s1 | 6.77
Fc1ccccc1-c1c[nH]c2ccc(-c3nnc(NCc4cccc5[nH]ccc45)s3)cc12 | 7.07
CC(C)Oc1cccc(-c2c[nH]c3ccc(-c4nnc(N)o4)cc23)n1 | 8.95
Nc1cncc(-c2c[nH]c3ccc(-c4nnc(N)s4)cc23)n1 | 7.54
Cc1ccccc1-c1ccnc(-c2c[nH]c3ccc(-c4nnc(N)o4)cc23)n1 | 7.76
Nc1nnc(-c2ccc3[nH]cc(-c4cncc(-c5ccccc5)n4)c3c2)o1 | 8.27
Cc1cn(-c2cccc(-c3c[nH]c4ccc(-c5nnc(N)s5)cc34)n2)cn1 | 9.37
CNc1nnc(-c2ccc3[nH]cc(-c4nccc(N5CCN(C)CC5)n4)c3c2)s1 | 8.40
c1ccc(-c2nnc(-c3ccc4[nH]cc(-c5cncc(C6CC6)n5)c4c3)o2)cc1 | 6.86
CC1(C)CNc2ncc(-c3c[nH]c4ccc(-c5nnc(N)s5)cc34)nc21 | 8.31
CC(C)Nc1ccnc(-c2c[nH]c3ccc(-c4nnc(N)o4)cc23)n1 | 8.78
CC(C)Oc1ccc(F)c(-c2c[nH]c3ccc(-c4nnc(N)o4)nc23)c1 | 8.11
CCN(CC)c1cncc(-c2c[nH]c3ccc(-c4nnc(N)s4)cc23)n1 | 8.84
Nc1nnc(-c2ccc3[nH]cc(-c4cncc(N5CCCCC5)n4)c3c2)o1 | 8.74
CC(C)Nc1cncc(-c2c[nH]c3ccc(-c4nnc(N)s4)cc23)n1 | 8.94
Nc1nnc(-c2ccc3[nH]cc(-c4cccc(OC5CCC5)n4)c3c2)s1 | 8.53
CNc1nnc(-c2ccc3[nH]cc(-c4ccncc4)c3c2)s1 | 6.69
CC(Oc1cncc(-c2c[nH]c3ccc(-c4nnc(N)s4)cc23)n1)C(F)(F)F (stereo not shown) | 7.88
NC1CCN(c2nnc(-c3ccc4[nH]cc(-c5ccccc5F)c4c3)s2)CC1 | 6.79
Nc1nnc(-c2ccc3[nH]cc(-c4cncc(C5CC5)n4)c3c2)o1 | 8.80
Nc1nnc(-c2ccc3[nH]cc(-c4cnc(N5CCCC5=O)cn4)c3c2)s1 | 6.29
Nc1ncc(-c2ccc3[nH]cc(-c4cccc(N5CCOCC5)n4)c3c2)s1 | 7.35
CC1CCCCN1c1ccnc(-c2c[nH]c3ccc(-c4nnc(N)o4)cc23)n1 (stereo not shown) | 9.01
Nc1nnc(-c2ccc3[nH]cc(-c4cccc(NC5CCCCC5)n4)c3c2)s1 | 7.67
CC(Nc1nnc(-c2ccc3[nH]cc(-c4ncccn4)c3c2)o1)c1ccccc1 (stereo not shown) | 7.36
CN1CCN(c2cnc(-c3c[nH]c4ccc(-c5nnc(N)s5)cc34)cn2)CC1 | 7.27
Fc1ccccc1-c1c[nH]c2ccc(-c3nnc(N[C@H]4CCCNC4)s3)cc12 (stereo in doubt) | 7.74
C[C@H]1CCCN(c2ccnc(-c3c[nH]c4ccc(-c5nnc(N)o5)cc34)n2)C1 (stereo in doubt) | 8.75
CNc1nnc(-c2ccc3[nH]cc(-c4nccc(N5CCC[C@H](N)C5)n4)c3c2)s1 | 9.13
Nc1nnc(-c2ccc3[nH]cc(-c4cccc(-n5cccn5)n4)c3c2)s1 | 7.57
Nc1nnc(-c2ccc3[nH]cc(-c4cncc(N5CCC(F)(F)C5)n4)c3c2)o1 | 8.79
Brc1nnc(-c2ccc3[nH]cc(-c4cccc(N5CCOCC5)n4)c3c2)s1 | 6.40
CNc1nnc(-c2ccc3[nH]cc(-c4cccnc4)c3c2)s1 | 6.56
Nc1nnc(-c2ccc3[nH]cc(-c4csc(-n5ccccc5=O)n4)c3c2)s1 | 7.52

* * *

- system_name: full length recombinant Pim-3 (Homo sapiens (Human), UniProt Q86V86)
- test_name: Pim enzyme assay (HTRF, phosphorylation of biotinylated-BAD (S112) peptide), Pim-3
- Format: biochemical
- test_conditions: Pim-3 enzyme assay; read-out: Pim3 IC50
- Excerpt: Pim-3 was purchased from Millipore (UK). The phosphorylation of biotinylated-BAD (S112) peptide by full length recombinant Pim-1, Pim-2, or Pim-3 protein was detected with streptavidin:Allophycocyanin (APC) conjugate and a europium (Eu) labeled antibody directed against phosphorylated-BAD (S112). […] The fluorescence is directly proportional to the amount of phosphorylated BAD peptide present in the reaction. […]
Collected log10(IC50) values appear next to each entry.
recorded_metric: log10(IC50) (log10 of the value in nM)

structure_smiles_string | log10(IC50)
CCOc1cccc(-c2c[nH]c3ccc(-c4nnc(NC)s4)cc23)n1 | 0.85
Fc1ccccc1-c1c[nH]c2ccc(-c3nnc(NCc4ccccc4)s3)cc12 | 2.72
Cc1ccn(-c2cccc(-c3c[nH]c4ccc(-c5nnc(N)s5)cc34)n2)n1 | 1.38
Fc1ccccc1-c1c[nH]c2ccc(-c3nnc(NCc4ccc5[nH]ccc5c4)s3)cc12 | 1.77
Nc1nnc(-c2ccc3[nH]cc(-c4ncccn4)c3c2)o1 | 2.15

* * *

- system_name: full length recombinant Pim-2 (Homo sapiens (Human), UniProt Q9P1W9)
- Sequence (Q9P1W9 whole entry): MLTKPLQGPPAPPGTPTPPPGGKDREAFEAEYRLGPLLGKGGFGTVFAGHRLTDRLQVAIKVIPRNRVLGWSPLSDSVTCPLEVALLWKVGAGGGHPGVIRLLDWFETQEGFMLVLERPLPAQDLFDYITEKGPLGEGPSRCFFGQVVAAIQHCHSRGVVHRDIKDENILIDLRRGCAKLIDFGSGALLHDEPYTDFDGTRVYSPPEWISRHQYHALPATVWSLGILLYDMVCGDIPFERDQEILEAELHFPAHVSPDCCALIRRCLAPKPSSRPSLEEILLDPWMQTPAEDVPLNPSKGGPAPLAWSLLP
- test_name: Pim enzyme assay (HTRF, phosphorylation of biotinylated-BAD (S112) peptide), Pim-2
- Format: biochemical
- test_conditions: HTRF, 10-point curve, high dose 1 uM, 45 min at RT; read-out: Pim2_IC50
pIC50: −log10 of the molar value.
Record rule met whenever pIC50 is at 8 or higher; record rule not met when lower.

molecule | class
CNC(=O)c1cncc(-c2c[nH]c3ccc(-c4nnc(NC(C)C)o4)cc23)c1 | rule not met
CNC(=O)c1cccc(-c2c[nH]c3ccc(-c4nnc(NC(C)C)o4)cc23)n1 | rule not met
COc1nccc(-c2c[nH]c3ccc(-c4nnc(NC(C)C)o4)cc23)n1 | rule not met
CC(C)Nc1nnc(-c2ccc3[nH]cc(-c4ncc(C(N)=O)c(C5CC5)n4)c3c2)o1 | rule met
CC(C)Nc1nnc(-c2ccc3[nH]cc(-c4cccc(C(=O)N(C)C)n4)c3c2)o1 | rule not met
CNC(=O)c1ccnc(-c2c[nH]c3ccc(-c4nnc(NC(C)C)o4)cc23)n1 [Example 282, 2,2,2-trifluoroacetate] | rule not met
CC(C)Nc1nnc(-c2ccc3[nH]cc(-c4ccc(C(N)=O)cc4F)c3c2)o1 | rule not met
CC(C)Nc1nnc(-c2cc3c(-c4nccc(C5CC5)n4)c[nH]c3cc2F)o1 | rule met
CC(C)Nc1nnc(-c2ccc3[nH]cc(-c4cncc(C(=O)N(C)C)c4)c3c2)o1 | rule not met
CC(C)Nc1nnc(-c2ccc3[nH]cc(-c4cc(=O)[nH]c(C5CC5)n4)c3c2)o1 | rule met
CC(C)Nc1nnc(-c2ccc3[nH]cc(-c4nc(C(=O)NC5CC5)cs4)c3c2)o1 | rule not met
CC(C)Nc1nnc(-c2ccc3[nH]cc(NC(=O)c4ccncc4)c3c2)o1 | rule not met
CC(C)Nc1nnc(-c2ccc3[nH]cc(-c4nccc(C(=O)NC5CC5)n4)c3c2)o1 [Example 283, 2,2,2-trifluoroacetate] | rule not met
COc1nc(-c2c[nH]c3ccc(-c4nnc(NC(C)C)o4)cc23)cc(=O)[nH]1 | rule not met
CC(C)Nc1nnc(-c2ccc3[nH]cc(-c4ccnc(C5CC5)n4)c3c2)o1 | rule met

* * *

Catalogue of log10 IC50 readings, one per entry.
- system_name: full length recombinant Pim-2 (Homo sapiens (Human))
- test_name: Pim enzyme assay (HTRF, phosphorylation of biotinylated-BAD (S112) peptide), Pim-2
- Assay type: biochemical
- test_conditions: read-out: Pim2_IC50
recorded_metric: log10 IC50 (log10 of the value in nM)

molecule | log10 IC50
CN1CCN(c2cccc(-c3c[nH]c4ccc(-c5nnc(N)s5)cc34)n2)CC1 | 1.04
CC(C)Oc1cccc(-c2c[nH]c3ccc(-c4nnc(N5CC[C@@H](N)C5)s4)cc23)n1 [Example 33, 2,2,2-trifluoroacetate] | 1.22
Nc1ncc(-c2ccc3[nH]cc(-c4cnc5ccccc5c4)c3c2)s1 | 3.43
CC(C)Nc1nccc(-c2c[nH]c3ccc(-c4nnc(NC(C)C)o4)cc23)n1 | 1.05
Nc1nnc(-c2ccc3[nH]cc(-c4cccc(NC5CCCC5)n4)c3c2)s1 [Example 16, 2,2,2-trifluoroacetate] | 1.32
CC(C)Nc1nc(-c2ccc3[nH]cc(-c4cncc(OC(C)C)n4)c3c2)no1 | 2.70
Nc1nnc(-c2ccc3[nH]cc(-c4cncc(NC5CCCC5)n4)c3c2)s1 [Example 17, 2,2,2-trifluoroacetate] | 0.77
CC(C)Oc1cccc(-c2c[nH]c3ccc(-c4nc(N)no4)cc23)n1 | 1.90
CS(=O)(=O)c1ccc(-c2c[nH]c3ccc(-c4nnc(N)o4)cc23)nc1 [Example 284, 2,2,2-trifluoroacetate] | 2.74
CC(C)Nc1cncc(-c2c[nH]c3ccc(-c4nc(N)no4)cc23)n1 | 1.77
c1cc(-c2nnc(-c3ccc4[nH]cc(-c5cncc(C6CC6)n5)c4c3)o2)[nH]n1 [Example 39, 2,2,2-trifluoroacetate] | 2.20
CC(C)(C)Nc1nnc(-c2ccc3[nH]cc(-c4nccc(C5CC5)n4)c3c2)o1 [Example 54, 2,2,2-trifluoroacetate] | 0.38
CC(C)Oc1cccc(-c2c[nH]c3ccc(-c4nnc(N5CC[C@H](N)C5)s4)cc23)n1 [Example 34, 2,2,2-trifluoroacetate] | 1.39
Nc1nnc(-c2ccc3[nH]cc(-c4cccc(-c5ccc(Cl)cc5)n4)c3c2)s1 | 1.88
CC(C)Nc1nnc(-c2ccc3[nH]cc(-c4nccc(OC5CCCN(C)C5)n4)c3c2)o1 (stereo not drawn) [Example 62, 2,2,2-trifluoroacetate] | 2.32
O=c1[nH]nc(-c2ccc3[nH]cc(-c4cncc(C5CC5)n4)c3c2)o1 [Example 38, 2,2,2-trifluoroacetate] | 1.74
CNc1nnc(-c2ccc3[nH]cc(-c4cccc(OC(C)C)n4)c3c2)o1 | 1.29
c1cc2[nH]cc(-c3cncc(C4CC4)n3)c2cc1-c1nnc(N2CCCC2)o1 [Example 37, 2,2,2-trifluoroacetate] | 1.90
